Conditions: 293.15 K; 101.33 kPa; Liquid; Capillary tube (Ostwald / Ubbelohde) method
± gives the expanded uncertainty stated by the source.
reported.property: viscosity
Write your answer as a measured quantity: the number, then the unit.

// below: answered molecules
{"substance.smiles": "CCCCCCCCO", "measured.result": "9.167 ± 0.05 mPa·s"}
{"substance.smiles": "CCO", "measured.result": "1.209 ± 0.007 mPa·s"}
{"substance.smiles": "CCCCCO", "measured.result": "4.037 ± 0.03 mPa·s"}

Turning now to a further molecule:
**Q:** Which viscosity is listed for COCCOC ?
**A:** 0.438 ± 0.003 mPa·s

###

Conditions: 303.15 K; 101.33 kPa; Liquid; Vibrating tube method
reported.property: mass density (kg/m3)
Number only, in kg/m3; omit the unit.

// below: answered compounds
{"substance.smiles": "COCCOC", "measured.result": 855.7}
{"substance.smiles": "CCCCCO", "measured.result": 807.25}
{"substance.smiles": "CCCCCCCCO", "measured.result": 818.14}

Turning now to a further compound:
**Q:** Which mass density is listed for CCO ?
**A:** 780.88
